As shown below, each of these molecules has a reported melting point value.

molecule=On1c(-c2cccs2)c[nH]c1=S reported_metric="melting point" experimental_value="183.6 to 184.8 °C"

Input: Specify reported melting point for the molecule shown: "S=c1[nH]ccn1OCc1cccnc1"
Output: 128 to 129 °C

Input: Specify reported melting point for the molecule shown: "COn1ccn(C)c1=S"
Output: 56.9 to 57.5 °C

Input: Specify reported melting point for the molecule shown: COn1cc[nH]c1=S [Compound 1, 1-methoxy-1,3-dihydroimidazole-2-thione]
Output: 111 to 111.8 °C

Input: Specify reported melting point for the molecule shown: "On1cc(-c2ccccc2)[nH]c1=S"
Output: 196.3 °C

Input: Specify reported melting point for the molecule shown: "COc1ccc(-c2cn(O)c(=S)[nH]2)cc1"
Output: 160 °C

Input: Specify reported melting point for the molecule shown: "COc1ccc(-c2c[nH]c(=S)n2O)cc1"
Output: 150 °C
